Measured AUC(0-t) by item
- procedureText: Pharmacokinetics (PK) test in mice
- Type: in vivo, male DBA/1 mice
- conditionSet: male, DBA/1, mouse, plasma

# compound, AUC(0-t)
records = [
    ("CN(c1ncnc2[nH]ccc12)N1CCC[C@@H](C(=O)NCC(F)(F)F)C1 (single isomer, unassigned)", "0.664 µM·h"),
    ("CN(c1ncnc2[nH]ccc12)N1CCC[C@@H](C(=O)NCC#N)C1 (single isomer, unassigned)", "3 µM·h"),
    ("CN(c1ncnc2[nH]ccc12)N1CCCC(C(=O)NCC#N)C1 (stereo not drawn)", "2.33 µM·h"),
]

====

- targetOfAssay: JAK3 (Homo sapiens, UniProt P52333)
- Sequence (P52333 1-1124): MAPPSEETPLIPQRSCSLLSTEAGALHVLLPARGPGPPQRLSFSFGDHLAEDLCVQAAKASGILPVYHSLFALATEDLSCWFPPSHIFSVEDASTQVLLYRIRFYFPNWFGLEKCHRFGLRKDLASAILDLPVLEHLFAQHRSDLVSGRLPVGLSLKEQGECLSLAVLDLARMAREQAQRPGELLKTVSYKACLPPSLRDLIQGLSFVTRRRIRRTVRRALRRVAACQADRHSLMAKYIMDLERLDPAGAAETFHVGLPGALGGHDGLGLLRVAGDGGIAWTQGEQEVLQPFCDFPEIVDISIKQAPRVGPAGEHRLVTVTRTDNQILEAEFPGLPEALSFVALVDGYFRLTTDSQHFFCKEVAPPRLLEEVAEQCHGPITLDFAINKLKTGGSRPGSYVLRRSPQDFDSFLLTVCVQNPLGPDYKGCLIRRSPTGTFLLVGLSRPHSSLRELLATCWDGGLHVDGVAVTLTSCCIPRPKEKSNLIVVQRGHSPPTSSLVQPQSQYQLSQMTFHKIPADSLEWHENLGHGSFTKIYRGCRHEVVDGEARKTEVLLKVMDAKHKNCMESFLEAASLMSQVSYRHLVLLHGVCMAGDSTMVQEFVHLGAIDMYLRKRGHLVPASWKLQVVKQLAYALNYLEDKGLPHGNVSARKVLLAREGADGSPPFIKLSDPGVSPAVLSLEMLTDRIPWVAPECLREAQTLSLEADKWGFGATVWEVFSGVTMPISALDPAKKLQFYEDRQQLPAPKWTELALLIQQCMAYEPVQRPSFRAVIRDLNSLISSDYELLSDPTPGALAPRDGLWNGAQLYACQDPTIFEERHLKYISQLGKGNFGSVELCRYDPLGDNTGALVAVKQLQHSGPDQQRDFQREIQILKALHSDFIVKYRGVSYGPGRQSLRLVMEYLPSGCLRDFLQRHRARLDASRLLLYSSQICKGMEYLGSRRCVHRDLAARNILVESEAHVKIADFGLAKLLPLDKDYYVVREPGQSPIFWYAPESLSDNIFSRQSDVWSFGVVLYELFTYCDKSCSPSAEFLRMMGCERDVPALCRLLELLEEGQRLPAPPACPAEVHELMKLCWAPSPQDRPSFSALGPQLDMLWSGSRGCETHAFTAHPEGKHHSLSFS
pIC50: −log10 of the molar value.
Measured pIC50 by item
measuredMetric: pIC50

# compound, targetOfAssay, reported
data = [
    ("CN(c1ncnc2[nH]ccc12)N1CCC(C(=O)NCC(F)(F)F)C1 (centres unmarked)", "JAK3 (Homo sapiens, UniProt P52333)", "7.00 to 8.00"),
    ("O=C(NCC(F)(F)F)C1CCN(Nc2ncnc3[nH]ccc23)CC1", "JAK3 (Homo sapiens, UniProt P52333)", "6.00 to 7.00"),
    ("CN(c1ncnc2[nH]ccc12)N1CCCC(C(=O)NCC(F)F)C1 (centres unmarked)", "JAK3 (Homo sapiens, UniProt P52333)", "> 8.00"),
    ("CN(c1ncnc2[nH]ccc12)N1CCCC(C(=O)NCC#N)C1 (centres unmarked)", "JAK3 (Homo sapiens, UniProt P52333)", "> 8.00"),
    ("CN(c1ccnc2[nH]ccc12)N1CCCC(C(=O)NCC(F)(F)F)C1 (centres unmarked)", "JAK3 (Homo sapiens, UniProt P52333)", "6.00 to 7.00"),
    ("CN(c1ncnc2[nH]ccc12)N1CCC[C@@H](C(=O)NCC(F)(F)C(F)(F)F)C1 (single isomer, unassigned)", "JAK3 (Homo sapiens, UniProt P52333)", "< 6.00"),
    ("CN(c1ncnc2[nH]ccc12)N1CCC[C@H](C(=O)NCC(F)F)C1 (single isomer, unassigned)", "JAK3 (Homo sapiens, UniProt P52333)", "6.00 to 7.00"),
    ("CN(c1ncnc2[nH]ccc12)N1CCC[C@@H](C(=O)NCC(F)(F)F)C1 (single isomer, unassigned)", "JAK3 (Homo sapiens, UniProt P52333)", "> 8.00"),
]

====

Measured AUC(0-inf) by item
- procedureText: Pharmacokinetics (PK) test in rats
- Type: in vivo
- conditionSet: rat, plasma

# compound, AUC(0-inf)
rows = [
    ("CN(c1ncnc2[nH]ccc12)N1CCC[C@@H](C(=O)NCC(F)(F)F)C1 (single isomer, unassigned)", "11.5 µM·h"),
    ("CN(c1ncnc2[nH]ccc12)N1CCCC(C(=O)NCC#N)C1 (stereo not drawn)", "5.75 µM·h"),
    ("CN(c1ncnc2[nH]ccc12)N1CCC[C@@H](C(=O)NCC#N)C1 (single isomer, unassigned)", "6.5 µM·h"),
]

====

- targetOfAssay: JAK3 (Homo sapiens, UniProt P52333);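 further: recombinant human JAK3 phosphorylating ULight-JAK-1(Tyr1023) peptide at 4 µM ATP, with 1% DMSO, detected by Eu-anti-phosphotyrosine TR-FRET on Envision and converted to percent inhibition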
- Sequence (P52333 1-1124): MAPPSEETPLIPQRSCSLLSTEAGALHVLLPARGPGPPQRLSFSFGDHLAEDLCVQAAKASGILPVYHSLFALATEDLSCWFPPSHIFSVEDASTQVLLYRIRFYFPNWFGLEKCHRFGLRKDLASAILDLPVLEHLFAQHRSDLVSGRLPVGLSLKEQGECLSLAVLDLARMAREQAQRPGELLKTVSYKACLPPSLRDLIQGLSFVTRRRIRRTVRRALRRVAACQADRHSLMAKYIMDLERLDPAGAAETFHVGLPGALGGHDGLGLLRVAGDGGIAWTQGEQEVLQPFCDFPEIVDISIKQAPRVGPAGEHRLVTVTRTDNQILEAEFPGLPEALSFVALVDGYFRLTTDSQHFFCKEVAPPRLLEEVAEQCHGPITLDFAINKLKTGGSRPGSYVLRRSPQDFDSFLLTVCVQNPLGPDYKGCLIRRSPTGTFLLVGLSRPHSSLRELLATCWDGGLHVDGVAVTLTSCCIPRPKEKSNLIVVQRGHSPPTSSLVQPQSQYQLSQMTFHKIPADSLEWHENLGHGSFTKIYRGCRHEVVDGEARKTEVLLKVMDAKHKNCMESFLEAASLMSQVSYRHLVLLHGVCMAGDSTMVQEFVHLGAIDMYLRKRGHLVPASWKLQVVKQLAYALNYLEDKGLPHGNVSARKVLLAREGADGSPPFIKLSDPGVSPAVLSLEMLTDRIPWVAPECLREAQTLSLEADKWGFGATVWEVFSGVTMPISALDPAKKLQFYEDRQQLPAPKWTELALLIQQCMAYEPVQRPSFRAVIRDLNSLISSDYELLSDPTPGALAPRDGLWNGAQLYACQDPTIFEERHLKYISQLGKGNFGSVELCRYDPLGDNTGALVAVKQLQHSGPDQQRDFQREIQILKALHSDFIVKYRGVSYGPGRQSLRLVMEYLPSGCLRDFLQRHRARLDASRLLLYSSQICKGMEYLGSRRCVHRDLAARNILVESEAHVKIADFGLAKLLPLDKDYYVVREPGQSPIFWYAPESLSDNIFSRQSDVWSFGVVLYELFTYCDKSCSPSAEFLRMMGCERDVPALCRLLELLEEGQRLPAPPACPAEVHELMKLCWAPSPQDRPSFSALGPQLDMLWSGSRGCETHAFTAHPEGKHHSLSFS
pIC50: −log10 of the molar value.
measuredMetric: pIC50

# compound, reported
measured = [
    ("CN(c1ncnc2[nH]ccc12)N1CCCC(CNC(=O)CC#N)C1 (stereo not drawn) [WX45]", "6.00 to 7.00"),
    ("CN(c1ncnc2[nH]ccc12)N1CCC(NC(=O)CC(F)(F)F)CC1 [WX24]", "6.00 to 7.00"),
    ("CN(CC(F)(F)F)C(=O)C1CCCN(N(C)c2ncnc3[nH]ccc23)C1 (stereo not drawn) [WX02]", "7.00 to 8.00"),
    ("CN(c1ncnc2[nH]ccc12)N1CCCC(C(=O)NCC(F)(F)F)C1 (stereo not drawn) [WX04]", "7.00 to 8.00"),
    ("CN(c1ncnc2[nH]ccc12)N1CCC[C@@H](C(=O)NCC#N)C1 (single isomer, unassigned) [WX08]", "> 8.00"),
    ("CN(c1ncnc2[nH]ccc12)N1CCCC(C(=O)NCC(F)(F)F)C1 (single isomer, unassigned) [WX06]", "< 6.00"),
]
